# Ribosomal protein S6 kinase alpha-6 (Homo sapiens): Kd values follow; further: in the data inactive means no Kd found up to 30 µM
# Sequence (Q9UK32 whole entry): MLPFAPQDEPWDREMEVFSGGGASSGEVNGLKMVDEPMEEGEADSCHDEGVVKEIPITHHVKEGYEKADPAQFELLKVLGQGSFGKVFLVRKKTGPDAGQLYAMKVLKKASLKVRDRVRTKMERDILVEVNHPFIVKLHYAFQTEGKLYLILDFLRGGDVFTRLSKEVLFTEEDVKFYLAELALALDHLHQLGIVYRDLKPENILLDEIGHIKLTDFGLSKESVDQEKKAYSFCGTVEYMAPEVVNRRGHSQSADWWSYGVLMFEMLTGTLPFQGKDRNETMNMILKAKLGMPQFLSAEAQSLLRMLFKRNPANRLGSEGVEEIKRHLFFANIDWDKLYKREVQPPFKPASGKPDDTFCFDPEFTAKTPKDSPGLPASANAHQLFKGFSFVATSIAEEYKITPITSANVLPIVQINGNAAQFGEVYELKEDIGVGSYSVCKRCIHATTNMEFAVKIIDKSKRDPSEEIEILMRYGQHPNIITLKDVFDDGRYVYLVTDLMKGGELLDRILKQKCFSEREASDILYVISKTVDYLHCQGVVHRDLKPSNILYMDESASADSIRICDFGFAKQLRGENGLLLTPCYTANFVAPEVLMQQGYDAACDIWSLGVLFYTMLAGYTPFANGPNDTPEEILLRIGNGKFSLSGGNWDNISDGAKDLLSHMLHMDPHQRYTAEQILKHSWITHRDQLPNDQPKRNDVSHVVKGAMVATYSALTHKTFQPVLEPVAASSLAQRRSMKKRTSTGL
Active and inactive are the calls of the source.
RECORDED_ENDPOINT: Kd

COMPOUND	TARGET_OR_TEST_SYSTEM	RECORDED_ENDPOINT	OBS_VALUE
COc1cc2c(Nc3ccc(Cl)c(Cl)c3F)ncnc2cc1OC[C@@H]1C[C@@H]2CN(C)C[C@@H]2C1	Ribosomal protein S6 kinase alpha-6 (Homo sapiens)	Kd	> 30 µM (inactive)
Cc1csc(-c2nnc(Nc3ccc(Oc4ncccc4-c4ccnc(N)n4)cc3)c3ccccc23)c1	Ribosomal protein S6 kinase alpha-6 (Homo sapiens)	Kd	> 30 µM (inactive)
CN1CCN(CCOc2cc(OC3CCOCC3)c3c(Nc4c(Cl)ccc5c4OCO5)ncnc3c2)CC1	Ribosomal protein S6 kinase alpha-6 (Homo sapiens)	Kd	> 30 µM (inactive)
O=c1[nH]ccc2cc(OC3CCNCC3)ccc12 [SAR-407899 FREE BASE]	Ribosomal protein S6 kinase alpha-6 (Homo sapiens)	Kd	> 30 µM (inactive)
C[C@@H](Oc1cc(C(=O)Nc2ccc(C(=O)N3CCN(C)CC3)cc2)nnc1N)c1c(Cl)ccc(F)c1Cl	Ribosomal protein S6 kinase alpha-6 (Homo sapiens)	Kd	> 30 µM (inactive)
